Details: TIDE 2X 0.78 g/l, 6 gpg, pH 8.2, 30 min at 20°C, A405; variant vs wild-type thermolysin at same protein concentration
Protocol: Thermolysin containing protease samples were obtained from filtered broth of cultures grown in microtiter plates for 3 days at 37° C. with shaking at 280 rpm under humidified aeration. […] The incubator was set to 20° C. […] Subsequently this MTP, containing 100 μl of solution/well, was read at 405 nm in a MTP-Reader. […] The observed absorbance value was corrected for the blank value (obtained after incubation of microswatches in the absence of added enzyme). […]

molecule: I156M: single-substitution thermolysin variant (SEQ ID NO:3 numbering) (protein, listed as Geobacillus caldoproteolyticus) ITGTSTVGVGRGVLGDQKNINTTYSTYYYLQDNTRGNGIFTYDAKYRTTLPGSLWADADNQFFASYDAPAVDAHYYAGVTYDYYKNVHNRLSYDGNNAAIRSSVHYSQGYNNAFWNGSQMVYGDGDGQTFIPLSGGIDVVAHELTHAVTDYTAGLMYQNESGAINEAISDIFGTLVEFYANKNPDWEIGEDVYTPGISGDSLRSMSDPAKYGDPDHYSKRYTGTQDNGGVHINSGIINKAAYLISQGGTHYGVSVVGIGRDKLGKIFYRALTQYLTPTSNFSQLRAAAVQSATDLYGSTSQEVASVKQAFDAVGVK
PI (performance index), stain removal: 1.11
--
molecule: I156W: single-substitution thermolysin variant (SEQ ID NO:3 numbering) (protein, listed as Geobacillus caldoproteolyticus) ITGTSTVGVGRGVLGDQKNINTTYSTYYYLQDNTRGNGIFTYDAKYRTTLPGSLWADADNQFFASYDAPAVDAHYYAGVTYDYYKNVHNRLSYDGNNAAIRSSVHYSQGYNNAFWNGSQMVYGDGDGQTFIPLSGGIDVVAHELTHAVTDYTAGLWYQNESGAINEAISDIFGTLVEFYANKNPDWEIGEDVYTPGISGDSLRSMSDPAKYGDPDHYSKRYTGTQDNGGVHINSGIINKAAYLISQGGTHYGVSVVGIGRDKLGKIFYRALTQYLTPTSNFSQLRAAAVQSATDLYGSTSQEVASVKQAFDAVGVK
PI (performance index), stain removal: 1.16
--
molecule: Y151Q: single-substitution thermolysin variant (SEQ ID NO:3 numbering) (protein, listed as Geobacillus caldoproteolyticus) ITGTSTVGVGRGVLGDQKNINTTYSTYYYLQDNTRGNGIFTYDAKYRTTLPGSLWADADNQFFASYDAPAVDAHYYAGVTYDYYKNVHNRLSYDGNNAAIRSSVHYSQGYNNAFWNGSQMVYGDGDGQTFIPLSGGIDVVAHELTHAVTDQTAGLIYQNESGAINEAISDIFGTLVEFYANKNPDWEIGEDVYTPGISGDSLRSMSDPAKYGDPDHYSKRYTGTQDNGGVHINSGIINKAAYLISQGGTHYGVSVVGIGRDKLGKIFYRALTQYLTPTSNFSQLRAAAVQSATDLYGSTSQEVASVKQAFDAVGVK
PI (performance index), stain removal: 1.29
--
molecule: Q128M: single-substitution thermolysin variant (SEQ ID NO:3 numbering) (protein, listed as Geobacillus caldoproteolyticus) ITGTSTVGVGRGVLGDQKNINTTYSTYYYLQDNTRGNGIFTYDAKYRTTLPGSLWADADNQFFASYDAPAVDAHYYAGVTYDYYKNVHNRLSYDGNNAAIRSSVHYSQGYNNAFWNGSQMVYGDGDGMTFIPLSGGIDVVAHELTHAVTDYTAGLIYQNESGAINEAISDIFGTLVEFYANKNPDWEIGEDVYTPGISGDSLRSMSDPAKYGDPDHYSKRYTGTQDNGGVHINSGIINKAAYLISQGGTHYGVSVVGIGRDKLGKIFYRALTQYLTPTSNFSQLRAAAVQSATDLYGSTSQEVASVKQAFDAVGVK
PI (performance index), stain removal: 1.10
